Measured cytotoxicity at 70.5 h of individual entries
Assay: Human HepG2 cell viability assay in 384 well format
Assay type: toxicity, cell-based
Parameters: dose 125 nL, time 70.5 hour; concentration not given beside the values
Condition description: HepG2 cells, read-out: Inhibition
Measured endpoint: cytotoxicity at 70.5 h (%)

[
  {
    "Compound": "CC(=O)N(C)Cc1ccccc1NC(=O)N(C)CCc1cccs1",
    "Value observed": -3.06
  },
  {
    "Compound": "CS(=O)(=O)NCc1ccc2c(c1)CCC2",
    "Value observed": -7.69
  },
  {
    "Compound": "Cc1ccccc1N1CCCN(CC2(O)CCCNC2)CC1 (configuration not stated)",
    "Value observed": 20.3
  },
  {
    "Compound": "N#Cc1cccnc1N1CCCN(CC(=O)N2CCNC(=O)C2)CC1",
    "Value observed": -5.07
  },
  {
    "Compound": "CSCCC(C)(O)CNS(=O)(=O)Cc1ccc(F)cc1 (configuration not stated)",
    "Value observed": -17
  },
  {
    "Compound": "COCCOc1ccc(NC(=O)N(CCCO)CC(C)(C)C)cn1",
    "Value observed": 21.2
  },
  {
    "Compound": "O=C(NCc1cc[nH]n1)NCC(c1ccc(F)cc1)N1CCOCC1 (configuration not stated)",
    "Value observed": -12.9
  },
  {
    "Compound": "CO[C@@H]1CCN(S(=O)(=O)c2cn(C)cn2)[C@H]1Cc1cnn(C)c1",
    "Value observed": -0.546
  },
  {
    "Compound": "CNC(=O)C1Cn2ccnc2C2(CCN(C(=O)CC3CCCC3)CC2)O1 (configuration not stated)",
    "Value observed": -1.06
  },
  {
    "Compound": "COc1ccccc1OCc1cc(C(=O)N2CCN[C@H](C)C2)n[nH]1",
    "Value observed": -5.99
  },
  {
    "Compound": "CCc1noc(CN2CCCN(Cc3cccs3)CC2)n1",
    "Value observed": -11.1
  },
  {
    "Compound": "CN1CC(C(=O)N2CCN(c3cccc(Cl)c3)C(=O)C2)NC1=O (configuration not stated)",
    "Value observed": -7.63
  }
]
